B1: TMEM40 (parent)
chain: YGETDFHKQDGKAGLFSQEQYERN

- Variants of: B1
- Experiment: protein stability index of a GFP-peptide fusion (GPS, HEK-293T) (PSI 1-6); higher = more stable;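 also: lentivirally expressed fusions sorted by FACS into six bins by GFP to DsRed ratio, PSI derived from sequencing read proportions per bin multiplied by bin number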
- Measurement Setup: c terminus: a fixed tail appended
# reported protein stability index; entries follow

>  <Mutant Label>
D10V

>  <protein stability index>
2

$$$$
>  <Mutant Label>
Y21A

>  <protein stability index>
4.04

$$$$
>  <Mutant Label>
F16R

>  <protein stability index>
4.81

$$$$
>  <Mutant Label>
T4A

>  <protein stability index>
3.78

$$$$
>  <Mutant Label>
Y1I

>  <protein stability index>
4.58

$$$$
>  <Mutant Label>
E22F

>  <protein stability index>
3.19

$$$$
>  <Mutant Label>
H7I

>  <protein stability index>
4.37

$$$$
>  <Mutant Label>
E3L

>  <protein stability index>
4.08

$$$$
>  <Mutant Label>
H7D

>  <protein stability index>
5.38

$$$$
>  <Mutant Label>
T4C

>  <protein stability index>
4.34

$$$$
>  <Mutant Label>
G11K

>  <protein stability index>
4.16

$$$$
>  <Mutant Label>
F16N

>  <protein stability index>
4.91

$$$$
>  <Mutant Label>
G11M

>  <protein stability index>
4.58

$$$$
>  <Mutant Label>
L15H

>  <protein stability index>
4.02

$$$$
>  <Mutant Label>
Y21W

>  <protein stability index>
4.09

$$$$
>  <Mutant Label>
N24S

>  <protein stability index>
4.22

$$$$
>  <Mutant Label>
Q20H

>  <protein stability index>
4.01

$$$$
>  <Mutant Label>
G2V

>  <protein stability index>
1.6

$$$$
>  <Mutant Label>
R23D

>  <protein stability index>
4.9

$$$$
>  <Mutant Label>
H7E

>  <protein stability index>
4.93

$$$$
>  <Mutant Label>
D10I

>  <protein stability index>
1.92

$$$$
>  <Mutant Label>
H7F

>  <protein stability index>
1.88

$$$$
>  <Mutant Label>
L15Y

>  <protein stability index>
3.84

$$$$
>  <Mutant Label>
N24V

>  <protein stability index>
3.67

$$$$
>  <Mutant Label>
G14W

>  <protein stability index>
2.72

$$$$
>  <Mutant Label>
K8C

>  <protein stability index>
4.5

$$$$
